Numbers sourced from ChEMBL document CHEMBL5042544.

Target: ATPase family AAA domain-containing protein 2 (Homo sapiens, UniProt Q6PL18)
Experiment: Displacement of Halo-tagged Histone H3.3 from Nanoluc-ATAD2A BD (962 to 1119 residues) (unknown origin) transfected in human HCT116 cells incubated for 18 hrs by NanoBRET assay
Format: cell-based, HCT-116
pIC50: −log10 of the molar value.
pIC50 for assorted molecules

>  <structure_string>
C[C@H]1NC(=O)[C@@H]2Cc3ccccc3[C@H]1N2C(=O)c1cn(C)c(=O)c2[nH]c3ccc(OC(F)(F)F)cc3c12

>  <pIC50>
5.90

$$$$
>  <structure_string>
Cc1nnc2c(NC3CCN(C)CC3)cc(C(=O)N3[C@H]4Cc5ccccc5[C@@H]3CNC4=O)nn12

>  <pIC50>
5.60

$$$$
>  <structure_string>
Cc1nnc2c(NCCCN3CCC(F)(F)CC3)cc(C(=O)N3[C@@H]4c5ccccc5C[C@H]3C(=O)N[C@@H]4C(C)C)nn12

>  <pIC50>
5.90

$$$$
>  <structure_string>
Cc1nnc2c(NCCCN3CCCC3)cc(C(=O)N3[C@@H]4c5ccccc5C[C@H]3C(=O)N[C@@H]4C(C)C)nn12

>  <pIC50>
5.70

$$$$
>  <structure_string>
Cc1nnc2c(NC3CCN(CC(C)(C)F)CC3)cc(C(=O)N3[C@@H]4c5ccccc5C[C@H]3C(=O)N[C@@H]4C(C)C)nn12

>  <pIC50>
6.90

$$$$
>  <structure_string>
Cc1nnc2c(NC3CCN(CC(C)(F)F)CC3)cc(C(=O)N3[C@@H]4c5ccccc5C[C@H]3C(=O)N[C@@H]4C(C)C)nn12

>  <pIC50>
6.30

$$$$

---

Documented IC50 across a set of compounds
Molecular target: Bromodomain-containing protein 4 (Homo sapiens)
Experiment: Displacement of Alexafluor 647-JQ1 from GST-BRD4 BD1 BD2 (44 to 460 residues) (unknown origin) incubated for 60 mins by fluorescence polarization assay
quantity: IC50

>  <compound>
Cc1nnc2c(NCCCN3CCCC3)cc(C(=O)N3[C@@H]4c5ccccc5C[C@H]3C(=O)N[C@@H]4C(C)C)nn12

>  <value_observed>
25.1 µM

$$$$
>  <compound>
CC(C)[C@H]1NC(=O)[C@@H]2Cc3ccccc3[C@H]1N2C(=O)c1cn(C)c(=O)c2[nH]c3ccccc3c12

>  <value_observed>
> 31.6 µM

$$$$
>  <compound>
Cc1nnc2c(NC3CCN(CC(C)(C)F)CC3)cc(C(=O)N3[C@@H]4c5ccccc5C[C@H]3C(=O)N[C@@H]4C(C)C)nn12

>  <value_observed>
20 µM

$$$$
>  <compound>
COc1cc(C(=O)N2[C@H]3Cc4ccccc4[C@@H]2CNC3=O)cc(OC)c1O

>  <value_observed>
> 31.6 µM

$$$$
>  <compound>
Cc1nnc2c(NCCCN3CCCC3)cc(C(=O)N3[C@H]4Cc5ccccc5[C@@H]3CNC4=O)nn12

>  <value_observed>
> 31.6 µM

$$$$
>  <compound>
Cc1nnc2c(NC3CCN(C)CC3)cc(C(=O)N3[C@H]4Cc5ccccc5[C@@H]3CNC4=O)nn12

>  <value_observed>
> 31.6 µM

$$$$
>  <compound>
C[C@H]1NC(=O)[C@@H]2Cc3ccccc3[C@H]1N2C(=O)c1cn(C)c(=O)c2[nH]c3ccccc3c12

>  <value_observed>
31.6 µM

$$$$
>  <compound>
Cc1nnc2c(NC3CCN(C)CC3)cc(C(=O)N3[C@H]4Cc5ccccc5[C@@H]3CNC4=O)cn12

>  <value_observed>
> 31.6 µM

$$$$
>  <compound>
CN1C[C@H]2c3ccccc3C[C@@H](C1=O)N2C(=O)c1cn(C)c(=O)c2[nH]ccc12

>  <value_observed>
7.94 µM

$$$$
>  <compound>
C[C@H]1NC(=O)[C@@H]2Cc3ccccc3[C@H]1N2C(=O)c1cn(C)c(=O)c2[nH]c3ccc(OC(F)(F)F)cc3c12

>  <value_observed>
> 31.6 µM

$$$$
>  <compound>
Cn1cc(C(=O)N2[C@H]3Cc4ccccc4[C@@H]2CNC3=O)c2c([nH]c3ccccc32)c1=O

>  <value_observed>
7.94 µM

$$$$
>  <compound>
Cc1nnc2c(NC3CCN(CC(C)(F)F)CC3)cc(C(=O)N3[C@@H]4c5ccccc5C[C@H]3C(=O)N[C@@H]4C(C)C)nn12

>  <value_observed>
> 31.6 µM

$$$$
>  <compound>
Cn1cc(C(=O)N2[C@H]3Cc4ccccc4[C@@H]2CNC3=O)cc(N)c1=O

>  <value_observed>
> 31.6 µM

$$$$
>  <compound>
Cc1cc(C(=O)N2[C@H]3Cc4ccccc4[C@@H]2CNC3=O)c[nH]c1=O

>  <value_observed>
> 31.6 µM

$$$$
>  <compound>
Cc1nnc2c(N)cc(C(=O)N3[C@H]4Cc5ccccc5[C@@H]3CNC4=O)cn12

>  <value_observed>
> 31.6 µM

$$$$
>  <compound>
COc1cc(C(=O)N2[C@H]3Cc4ccccc4[C@@H]2CNC3=O)cc2c(C)n[nH]c12

>  <value_observed>
> 31.6 µM

$$$$
>  <compound>
COc1cc(C(=O)N2C3Cc4ccccc4C2CNC3=O)cc(OC)c1O (stereo not given)

>  <value_observed>
> 31.6 µM

$$$$
>  <compound>
Cc1nnc2c(N)cc(C(=O)N3[C@H]4Cc5ccccc5[C@@H]3CNC4=O)nn12

>  <value_observed>
25.1 µM

$$$$
>  <compound>
Cn1cc(C(=O)N2[C@H]3Cc4ccccc4[C@@H]2CNC3=O)c2cc[nH]c2c1=O

>  <value_observed>
15.8 µM

$$$$
>  <compound>
Cc1nnc2c(NCCCN3CCC(F)(F)CC3)cc(C(=O)N3[C@@H]4c5ccccc5C[C@H]3C(=O)N[C@@H]4C(C)C)nn12

>  <value_observed>
> 31.6 µM

$$$$

---

Target: ATPase family AAA domain-containing protein 2 (Homo sapiens, UniProt Q6PL18)
Sequence (Q6PL18 whole entry): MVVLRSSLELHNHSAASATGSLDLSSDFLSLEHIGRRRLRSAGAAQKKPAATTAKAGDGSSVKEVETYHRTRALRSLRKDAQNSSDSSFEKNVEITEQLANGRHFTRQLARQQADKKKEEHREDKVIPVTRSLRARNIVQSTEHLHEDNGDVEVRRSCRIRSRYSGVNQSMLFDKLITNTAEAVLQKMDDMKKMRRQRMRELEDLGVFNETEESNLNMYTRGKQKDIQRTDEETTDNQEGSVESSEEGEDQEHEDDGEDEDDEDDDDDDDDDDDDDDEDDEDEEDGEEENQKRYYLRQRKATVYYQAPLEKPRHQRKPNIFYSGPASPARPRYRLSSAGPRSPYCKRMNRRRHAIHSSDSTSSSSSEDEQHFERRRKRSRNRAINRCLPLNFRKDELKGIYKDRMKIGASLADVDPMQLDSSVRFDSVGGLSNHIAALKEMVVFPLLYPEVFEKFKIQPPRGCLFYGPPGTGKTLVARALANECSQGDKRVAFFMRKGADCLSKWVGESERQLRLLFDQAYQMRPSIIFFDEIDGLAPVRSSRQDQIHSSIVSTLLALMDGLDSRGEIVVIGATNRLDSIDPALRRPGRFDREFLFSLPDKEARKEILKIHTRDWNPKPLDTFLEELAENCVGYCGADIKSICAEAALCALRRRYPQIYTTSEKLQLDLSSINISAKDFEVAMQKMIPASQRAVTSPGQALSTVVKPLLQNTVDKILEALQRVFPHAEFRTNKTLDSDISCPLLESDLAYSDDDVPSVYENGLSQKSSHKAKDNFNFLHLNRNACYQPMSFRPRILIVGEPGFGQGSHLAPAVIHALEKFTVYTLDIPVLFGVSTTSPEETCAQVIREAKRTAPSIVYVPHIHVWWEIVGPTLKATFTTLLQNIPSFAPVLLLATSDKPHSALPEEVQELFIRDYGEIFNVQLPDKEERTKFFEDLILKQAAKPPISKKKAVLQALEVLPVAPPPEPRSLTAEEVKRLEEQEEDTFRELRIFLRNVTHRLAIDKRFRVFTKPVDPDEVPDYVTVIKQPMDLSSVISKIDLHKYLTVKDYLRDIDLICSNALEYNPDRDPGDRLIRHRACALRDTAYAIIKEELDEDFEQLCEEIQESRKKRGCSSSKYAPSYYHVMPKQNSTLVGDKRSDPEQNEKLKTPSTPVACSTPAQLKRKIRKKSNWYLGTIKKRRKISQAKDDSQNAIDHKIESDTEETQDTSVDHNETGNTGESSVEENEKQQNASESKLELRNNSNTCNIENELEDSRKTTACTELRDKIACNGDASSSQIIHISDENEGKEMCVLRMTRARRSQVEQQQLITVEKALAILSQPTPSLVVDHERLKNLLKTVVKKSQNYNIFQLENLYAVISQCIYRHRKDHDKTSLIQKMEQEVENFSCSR
Assay: Inhibition of GST-ATAD2 BD (951 to 1132 residues) (unknown origin) expressed in Escherichia coli BL21 (DE3) and biotinylated tetra-acetylated histone H4 peptides as substrate incubated for 30 mins by TR-FRET assay
pIC50: −log10 of the molar value.
Binary call on pIC50: label 1 from 5 upward, label 0 beneath that.

>  <compound>
CN1C[C@H]2c3ccccc3C[C@@H](C1=O)N2C(=O)c1cn(C)c(=O)c2[nH]ccc12

>  <system_name>
ATPase family AAA domain-containing protein 2 (Homo sapiens, UniProt Q6PL18)

>  <class_name>
label 1

$$$$
>  <compound>
C[C@H]1NC(=O)[C@@H]2Cc3ccccc3[C@H]1N2C(=O)c1cn(C)c(=O)c2[nH]c3ccc(OC(F)(F)F)cc3c12

>  <system_name>
ATPase family AAA domain-containing protein 2 (Homo sapiens, UniProt Q6PL18)

>  <class_name>
label 1

$$$$
>  <compound>
Cc1nnc2c(NCCCN3CCCC3)cc(C(=O)N3[C@H]4Cc5ccccc5[C@@H]3CNC4=O)nn12

>  <system_name>
ATPase family AAA domain-containing protein 2 (Homo sapiens, UniProt Q6PL18)

>  <class_name>
label 1

$$$$
>  <compound>
COc1cc(C(=O)N2C3Cc4ccccc4C2CNC3=O)cc(OC)c1O (stereo unspecified)

>  <system_name>
ATPase family AAA domain-containing protein 2 (Homo sapiens, UniProt Q6PL18)

>  <class_name>
label 0

$$$$
>  <compound>
COc1cc(C(=O)N2[C@H]3Cc4ccccc4[C@@H]2CNC3=O)cc(OC)c1O

>  <system_name>
ATPase family AAA domain-containing protein 2 (Homo sapiens, UniProt Q6PL18)

>  <class_name>
label 0

$$$$
>  <compound>
Cc1nnc2c(NC3CCN(CC(C)(F)F)CC3)cc(C(=O)N3[C@@H]4c5ccccc5C[C@H]3C(=O)N[C@@H]4C(C)C)nn12

>  <system_name>
ATPase family AAA domain-containing protein 2 (Homo sapiens, UniProt Q6PL18)

>  <class_name>
label 1

$$$$
